The measurements presented in this section are drawn from patent US8039490B2.

Biological target: human 5-HT2A serotonin receptor (Homo sapiens, UniProt P28223)
Construct: expressed in transfected cells; host or cells: HEK-293 EBNA cells (transient transfection), membrane preparation
Sequence (P28223 whole entry): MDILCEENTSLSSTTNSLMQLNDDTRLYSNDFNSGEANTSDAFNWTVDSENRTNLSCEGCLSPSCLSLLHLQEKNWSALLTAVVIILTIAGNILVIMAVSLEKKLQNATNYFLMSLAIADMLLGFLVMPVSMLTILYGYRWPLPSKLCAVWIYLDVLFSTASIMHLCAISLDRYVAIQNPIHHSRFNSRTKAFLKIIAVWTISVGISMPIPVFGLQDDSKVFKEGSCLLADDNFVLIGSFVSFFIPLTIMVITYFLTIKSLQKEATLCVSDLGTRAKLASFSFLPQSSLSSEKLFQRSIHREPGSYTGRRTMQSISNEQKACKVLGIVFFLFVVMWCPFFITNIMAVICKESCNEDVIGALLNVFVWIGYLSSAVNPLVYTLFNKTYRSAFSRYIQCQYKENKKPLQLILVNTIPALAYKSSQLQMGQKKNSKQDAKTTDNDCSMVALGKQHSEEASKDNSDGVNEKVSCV
Assay: Radioligand binding, human 5-HT2A receptor ([3H]-ketanserin)
Conditions: second value of the cell; membranes of transfected HEK-293 EBNA cells, 1.1 nM [3H]-ketanserin; read-out: Ki(nM) D3/5HT2A/D2: 5HT2A
Description: The cells were harvested 48 h post-transfection, washed three times with cold PBS and stored at −80° C. prior to use. […] The protein content of this homogenate was determined with the Bio-Rad (Bradford) Protein Assay (Biorad Laboratories GmbH, München, Germany) according to the instructions of the manufacturer using gamma globulin as the standard. […] The binding affinity (Ki) of the compounds was determined using radioligand binding. […]
observedProperty: Ki (nM)
Please respond with the number in nM and leave the unit unwritten.

Use these answered entries as a reference point.
sampleSmiles: Cc1nc(-c2cccc(C(=O)N[C@H]3CC[C@H](CCN4CCC(O)(C(=O)c5ccc(F)cc5)CC4)CC3)c2)no1
resultUnit: nM
Ki: 21

sampleSmiles: COCCC(=O)N[C@H]1CC[C@H](CCN2CCC(F)(C(=O)c3ccc(F)cc3)CC2)CC1
resultUnit: nM
Ki: 2

sampleSmiles: O=C(CC(F)(F)F)N[C@H]1CC[C@H](CCN2CCC(C(=O)c3ccc(F)cc3)CC2)CC1
resultUnit: nM
Ki: 14

For the next question, use this molecule.
Case CC(=O)OCC(=O)N[C@H]1CC[C@H](CCN2CCC(C(=O)c3ccc(F)cc3)CC2)CC1 , human 5-HT2A serotonin receptor (Homo sapiens, UniProt P28223), Ki recorded as 15

---

Target: human D2 dopamine receptor (Homo sapiens, UniProt P14416)
Construct: expressed in transfected cells; host or cells: HEK-293 EBNA cells (transient transfection), membrane preparation
Sequence (P14416 whole entry): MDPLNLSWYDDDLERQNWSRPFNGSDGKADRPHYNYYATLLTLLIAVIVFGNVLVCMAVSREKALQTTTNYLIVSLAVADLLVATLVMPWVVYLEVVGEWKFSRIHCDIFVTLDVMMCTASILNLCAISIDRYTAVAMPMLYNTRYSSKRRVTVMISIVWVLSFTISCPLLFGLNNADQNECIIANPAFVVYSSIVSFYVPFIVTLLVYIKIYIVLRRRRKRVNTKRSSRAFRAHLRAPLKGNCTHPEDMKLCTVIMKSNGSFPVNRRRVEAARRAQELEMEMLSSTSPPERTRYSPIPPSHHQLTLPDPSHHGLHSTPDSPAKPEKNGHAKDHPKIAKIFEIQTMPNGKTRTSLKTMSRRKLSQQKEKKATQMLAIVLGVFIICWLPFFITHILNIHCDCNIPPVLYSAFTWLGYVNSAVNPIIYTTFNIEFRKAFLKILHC
Assay: Radioligand binding, human D2 receptor ([3H]-spiperone)
Conditions: third value of the cell; membranes of transfected HEK-293 EBNA cells, 0.7 nM [3H]-spiperone; read-out: Ki(nM) D3/5HT2A/D2: D2
observedProperty: log10(Ki) (log10 of the value in nM)
Base-10 log of Ki, unit nM.

Use these answered entries as a reference point.
compound: O=C(NC[C@@H]1C[C@H]1CN1CCC(C(=O)c2ccc(F)cc2)CC1)Nc1ccc(Cl)cc1 (relative stereo)
log10(Ki): 1.48

compound: O=C(CCOc1ccccc1)N[C@H]1CC[C@H](CCN2CCC(C(=O)c3ccc(F)cc3)CC2)CC1
log10(Ki): 3.05

compound: O=C(N[C@H]1CC[C@H](CCN2CCC(C(=O)c3ccc(F)cc3)CC2)CC1)c1ccc(N2CCOCC2)nn1
log10(Ki): 3.11

compound: O=C(C#Cc1ccccc1)N[C@H]1CC[C@H](CCN2CCC(C(=O)c3ccc(F)cc3)CC2)CC1
log10(Ki): 2.67

compound: COC(=O)N[C@H]1CC[C@H](CCN2CCC(C(=O)c3ccc(F)cc3)CC2)CC1
log10(Ki): 2.80

compound: CCOCCC(=O)N[C@H]1CC[C@H](CCN2CCC(C(=O)c3ccc(F)cc3)CC2)CC1
log10(Ki): 2.89

So, COc1cc(CC(=O)N[C@H]2CC[C@H](CCN3CCC(C(=O)c4ccc(F)cc4)CC3)CC2)cc(OC)c1 ? Its log10(Ki) was 3.30

So, O=C(N[C@H]1CC[C@H](CCN2CCC(C(=O)c3ccc(F)cc3)CC2)CC1)c1ccnc2ncccc12 ? Its log10(Ki) was 2.77

So, O=C(CC(F)(F)F)N[C@H]1CC[C@H](CCN2CCC(C(=O)c3ccc(F)cc3)CC2)CC1 ? Its log10(Ki) was 2.84
